B1: CPEB3 Ribozyme (parent)
chain: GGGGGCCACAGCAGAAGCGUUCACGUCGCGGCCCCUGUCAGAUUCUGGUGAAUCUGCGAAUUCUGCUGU

# Variants of: B1
# ASSAY: self-cleavage, relative activity (ratio to wild type); higher = more cleavage; co-transcriptional
Decision: self-cleavage compared against 0.4; not below it gives y, below it gives n.

G47A G68A : y
U53C C63G : y
C24A C27G : n
U36A G47A : n
U21C A51C : y
C12A C32U : y
G5A G31U : n
G5U G41C : n

Query string: Determine whether this variant has self-cleavage no lower than 0.4: A13C U55C
Result string: y

Query string: Is reported self-cleavage greater than or equal to 0.4 here: A40U U44C
Result string: n

Query string: Item C39A U53A with self-cleavage of 0.4 or above?
Result string: y

Query string: Check this variant for self-cleavage at or above 0.4: G56U G58A
Result string: y

Query string: Reported self-cleavage reaches at least 0.4 for G11U U44G ?
Result string: y

Query string: Is it the case that U21G U44G has self-cleavage reaching or exceeding 0.4?
Result string: n

Query string: Record G65A C66G ; criterion: self-cleavage no lower than 0.4. Met?
Result string: y
